Test system: CSNK2A1
Settings: concentration: 1 μM, replicates: in singlicate; n = 1;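 further: KINOMEscan kinase panel screen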
Please go through the items and note down their %Inh.
One number for each entry, in %.

CC1=C(C(=O)Nc2cc3cn[nH]c3cc2F)C(c2ccc(C(F)(F)F)cc2)CC(=O)N1 (centres unmarked); 18
CC(=O)Nc1nc2cnc(Nc3cc(NC(=O)c4cccc(CCC#N)c4)ccc3C)nc2s1; 0
Cc1cccc(-c2nc(-c3ccc(S(C)(=O)=O)cc3)sc2-c2ccnc(NCCc3ccccc3)c2)c1; 0

Give %Inh for all compounds that follow.
1. COc1cc2ncn(-c3cc(OCC4CCCO4)c(C(N)=O)s3)c2cc1OC (centres unmarked)
2. CCn1c(-c2ccccn2)nc2cnccc21

## Output
1: 8; 2: 0

====

Tested on: STK35
Conditions: concentration: 1 μM, replicates: in singlicate; n = 1
reported_property: %Inh (%)
Answers are plain numbers, in %.

Reference set, count: 5
CC(C)(C)c1ccc(C(=O)Nc2cn3cc(-c4cccnc4)ccc3n2)cc1; 0
Cn1ccc2ncnc(Oc3ccc(Nc4nc5ccccc5[nH]4)cc3)c21; 19
COc1ccccc1-c1ccc2c(NC(=O)C3CC3)n[nH]c2n1; 0
Fc1cc(Cl)ccc1Nc1ccnc2cc(-c3ccc(CN4CCCCC4)o3)ccc12; 0
COc1ccc2nc(-c3cccc(C)n3)nc(Nc3ccncc3)c2c1; 5

Proceed to the following item.
## Input GET /values?readout=%Inh&item= Cc1ccc(NC(=O)Nc2cccc(Cl)c2)cc1-c1ccc(C(=O)Nc2ccncc2)cc1
## Output 0

====

System: HIPK2
Settings: concentration: 1 μM, replicates: in singlicate; n = 1
Assign labels as follows, please: class 1 for %Inh below 20%; class 0 for %Inh equal to or exceeding 20%.

The following compounds have reported results that may help.
COC(=O)c1c(-c2ccccc2)c2cc(C(=O)O)ccc2c(=O)n1Cc1ccccc1; class 1
NC(=O)c1nnc2ccccc2c1N; class 0
Cc1cccc(-c2cc(Nc3ccncc3)c3ccccc3n2)n1; class 1
COc1cc(Nc2nccc(N3CCC(NC(=O)Nc4cc(C)ccc4C)C3)n2)cc(OC)c1OC (stereo not drawn); class 1
Cn1ccc2ncnc(Oc3cccc(C(=O)Nc4ccccc4)c3)c21; class 0
Cl.O=C(Nc1cccc(-c2nn3ncccc3c2-c2ccnc(Nc3cccnc3)n2)c1)c1c(F)cccc1F; class 1
O=C(Nc1ccccc1)Nc1cccc(Oc2ccc3nccn3n2)c1; class 0
C[C@@H]1CCCCN1c1cc(-c2ccc3c(N)n[nH]c3c2)nc(N)n1; class 1

Consider the record given below.
## Input Does the reported %Inh of Fc1cccc(COc2nnc(-c3ccc4c(c3)CCO4)o2)c1 stay below 20%?
## Output class 0

====

System: MINK
Construct: gene MINK1
Settings: concentration: 1 μM, replicates: in singlicate; n = 1
reported_property: %Inh
Provide the measurement as a number trailed by its unit.

Look over these answered cases.
Cc1ccc(C(=O)Nc2ccc(Nc3ccnc4cc(-c5ccccn5)ccc34)cc2O)cc1.Cl [GW440146]; 36%
O=C(Nc1n[nH]c2nc(-c3nccs3)c(Br)cc12)C1CCCC1 [SB-742609]; 0%

Lab note: each molecule below needs its %Inh filled in.
1. Cc1ccc(-c2cc(-c3c[nH]nc3-c3ccccn3)ccn2)cc1 [GW684088]
2. COc1cc2ncnc(Nc3ccc4nc(-c5ccccc5)[nH]c4c3)c2cc1OC.Cl [GW282450]
3. Cn1ccc2ncnc(Oc3ccc(Nc4nc5ccccc5[nH]4)cc3)c21
4. Fc1cc(Cl)ccc1Nc1ccnc2cc(I)ccc12 [GW551191]

## Output
1. 87%
2. 1%
3. 0%
4. 51%

// batch mode: one %Inh value per listed entry
1. Cc1cc(N2Cc3ccccc3C2)nc(Nc2ccc(S(=O)(=O)N3CCOCC3)cc2)n1.Cl [GSK1669917]
2. CSc1nn2c(=O)cc(N3CCOCC3)nc2n1Cc1cccc(C(F)(F)F)c1C [GSK2363608]
3. CC1=C(C(=O)Nc2cc3cn[nH]c3cc2F)C(c2ccc(C(F)(F)F)cc2)CC(=O)N1 (stereo not shown) [GSK429286]
4. Cn1cncc1-c1ccc2ncnc(Nc3ccc(OCc4ccccc4)cc3)c2c1 [GW320571]
5. COc1cc(Nc2nccc(N3CCC(NC(=O)Nc4cc(C)ccc4C)C3)n2)cc(OC)c1OC (stereo not shown) [GSK1379762]
6. CC(C)(C)c1ccc(C(=O)Nc2cn3cc(Cl)ccc3n2)cc1
7. Cl.NC(=O)c1cccc(Nc2nccc(Nc3ccc(Oc4cccc(Cl)c4)c(Cl)c3)n2)c1 [GW659008]

## Output
1: 20%; 2: 0%; 3: 0%; 4: 0%; 5: 0%; 6: 9%; 7: 0%

Required: %Inh, one value per molecule below.
1. O=C(Nc1ccc2c(c1)OCO2)NC1CCN(c2ccnc(Nc3ccc(F)cc3)n2)C1 (stereo not shown) [GSK1379724]
2. COc1ccccc1CNC(=O)c1cc(C(=O)c2ccccc2C)c[nH]1 [GSK364507]
3. CN1C(=O)C(Nc2ccc(Cl)c(C(=O)O)c2)=C(c2ccc(Cl)cc2)C1=O [SB-404290]
4. CC(C)(C)c1ccc(C(=O)Nc2cn3cc(-c4cccnc4)ccc3n2)cc1
5. Cc1ccccc1-n1cnc2c(N)ncnc21 [SKF-97510]
6. Cc1cccc(-c2nc(Nc3ccncc3)c3ccccc3n2)n1 [GW855857]

## Output
1. 0%
2. 0%
3. 10%
4. 52%
5. 0%
6. 33%

====

System: MYO3B
Details: concentration: 1 μM, replicates: in singlicate; n = 1
Would you kindly list %Inh for each of these compounds?
Give bare numbers, in %.

COc1ccc(C2=C(Nc3cccc(C(=O)O)c3)C(=O)NC2=O)cc1; 0
Cl.Oc1ccc(-c2nc(-c3ccccc3)[nH]c2-c2ccncc2)cc1; 0
O=C(Nc1ccc2c(c1)OCO2)NC1CCN(c2ccnc(Nc3ccc(F)cc3)n2)C1 (stereo not drawn); 0
Cc1ccc(NC(=O)Nc2cccc(Cl)c2)cc1-c1ccc(C(=O)Nc2ccncc2)cc1; 0
Cc1c(O)cccc1Nc1ccnc2ccc(C(F)(F)F)cc12.Cl; 0

Consider the following items and state reported %Inh for each.
1. Cn1ccc2ncnc(Oc3cccc(C(=O)Nc4ccccc4)c3)c21
2. CCCc1ccc(S(=O)(=O)NC2CCN(c3ccnc(Nc4ccc(F)cc4)n3)C2)cc1 (stereo not drawn)

## Output
4
0

I have 6 compounds here; please give me %Inh for each one.
1. CN1C(=O)C(Nc2ccc(Cl)c(C(=O)O)c2)=C(c2ccc(Cl)cc2)C1=O
2. O=C(Nc1n[nH]c2nc(-c3nccs3)c(Br)cc12)C1CCCC1
3. Clc1cc(Cl)cc(Nc2ccnc(Nc3cc(Cl)cc(Cl)c3)n2)c1
4. Cc1cc(-c2ccc3c(c2)CC[C@@H](N[C@@H](C)c2ccccc2)C3)cnc1N.Cl
5. COC(=O)c1c(-c2ccccc2)c2cc(C(=O)O)ccc2c(=O)n1Cc1ccccc1
6. O=C(Nc1ccccc1)Nc1cccc(Oc2ccc3nccn3n2)c1

## Output
1: 31; 2: 0; 3: 3; 4: 0; 5: 0; 6: 0

Give %Inh for each of the items listed below.
1. COc1ccc(Nc2nccc(NCCNC(=O)Nc3ccccc3F)n2)cc1
2. CC(C)(C)c1ccc(C(=O)Nc2cn3cc(-c4cccnc4)ccc3n2)cc1
3. Cc1ccc(NC(=O)Nc2cc(C(C)(C)C)nn2-c2ccccc2)cc1
4. COc1ccc(CNC(=O)NC2CCN(c3ccnc(Nc4cc(OC)c(OC)c(OC)c4)n3)C2)cc1 (stereo not drawn)

## Output
0
22
0
0

Give one value of %Inh per listed compound.
1. O=C(Nc1n[nH]c2cc(-c3cccc(F)c3F)ccc12)C1CC1
2. Cc1cccc(-c2nc(C)cc(Nc3ccncc3)n2)n1
3. Cl.c1ccc(-c2n[nH]cc2-c2ccnc(-c3ccc(CN4CCOCC4)cc3)c2)nc1

## Output
[0, 0, 1]

====

What %Inh was measured for each of the following?
Test system: WEE1
Settings: concentration: 1 μM, replicates: in singlicate; n = 1
One number for each entry, in %.

COc1ccc(CNC(=O)NC2CCN(c3ccnc(Nc4cc(OC)c(OC)c(OC)c4)n3)C2)cc1 (centres unmarked) [GSK1379748]; 5
Cc1ccc(C(=O)Nc2ccc(Nc3ccnc4cc(-c5ccccn5)ccc34)cc2O)cc1.Cl [GW440146]; 39
Cc1cc(N2Cc3ccccc3C2)nc(Nc2ccc(S(=O)(=O)N3CCOCC3)cc2)n1.Cl [GSK1669917]; 3

Would you mind listing %Inh for each of the following compounds?
1. Cn1ccc2ncnc(Oc3ccc(Nc4nc5ccccc5[nH]4)cc3)c21
2. COc1ccc(Nc2nccc(-c3cccc(NC(=O)c4cc5cc(F)ccc5[nH]4)c3)n2)cc1 [GSK1229782]
3. Cc1ccc(NC(=O)Nc2cc(C(C)(C)C)nn2-c2ccccc2)cc1 [GSK1014915]
4. Cc1cc(NCC(c2ccccc2)c2ccccc2)nc(NCc2ccc(C(F)(F)F)cc2)n1 [GW497681]
5. COc1ccccc1-c1ccc2c(NC(=O)C3CC3)n[nH]c2n1 [SB-711239]

## Output
[0, 33, 0, 11, 8]

Provide each entry's %Inh from the list below.
1. CC(C)(C)c1ccc(C(=O)Nc2cn3cc(-c4cccnc4)ccc3n2)cc1
2. CCn1c(-c2cccnc2O)nc2cnccc21 [SB-736715]
3. Nc1ncnc2[nH]c(-c3ccccc3)nc12 [AH5015]
4. COc1cc2ncnc(Nc3ccc4nc(-c5ccccc5)[nH]c4c3)c2cc1OC.Cl [GW282450]
5. Fc1cc(Cl)ccc1Nc1ccnc2cc(-c3ccc(CN4CCCCC4)o3)ccc12 [GW560116]

## Output
0
0
0
0
0

Would you mind listing %Inh for each of the following compounds?
1. COC(=O)c1c(-c2ccccc2)c2cc(OC)ccc2c(=O)n1Cc1ccccc1
2. CN(C)CCN(C)C(=O)c1cc(-c2ccncc2)c(-c2ccc(Cl)c(O)c2)o1.Cl.Cl [SB-710397]
3. CCCc1ccc(S(=O)(=O)NC2CCN(c3ccnc(Nc4ccc(F)cc4)n3)C2)cc1 (centres unmarked) [GSK1379715]

## Output
[0, 0, 6]

Could you report %Inh for every entry in the following list?
1. COc1ccc(Nc2nccc(NCCNC(=O)Nc3ccccc3F)n2)cc1 [GSK1379901]
2. O=C(Nc1ccc2c(c1)OCO2)NC1CCN(c2ccnc(Nc3ccc(F)cc3)n2)C1 (centres unmarked) [GSK1379724]
3. CC(C)(C)c1ccc(C(=O)Nc2cn3cc(Cl)ccc3n2)cc1

## Output
1. 13
2. 11
3. 0

Please supply %Inh for each of the following items, keeping them in order.
1. COc1cccc(-c2cc(-c3c[nH]nc3-c3ccccn3)ccn2)c1 [GW680338]
2. Cn1ccc2ncnc(Oc3cccc(C(=O)Nc4ccccc4)c3)c21
3. COc1cc2nccc(Nc3ccc(NC(=O)c4ccc(C)cc4)c(O)c3)c2cc1OC.Cl [GW440132]
4. O=C(Nc1n[nH]c2nc(-c3nccs3)c(Br)cc12)C1CCCC1 [SB-742609]
5. CC1=C(C(=O)Nc2cc3cn[nH]c3cc2F)C(c2ccc(C(F)(F)F)cc2)CC(=O)N1 (centres unmarked) [GSK429286]

## Output
[19, 5, 2, 0, 12]

# map each compound to its %Inh
1. Cl.c1ccc(-c2n[nH]cc2-c2ccnc(-c3ccc(CN4CCOCC4)cc3)c2)nc1 [GW776245]
2. Clc1cc(Cl)cc(Nc2ccnc(Nc3cc(Cl)cc(Cl)c3)n2)c1 [GSK175726]

## Output
16
6

Hi! Can you tell me %Inh for each of these compounds?
1. COc1ccc2nc(-c3cccc(C)n3)nc(Nc3ccncc3)c2c1 [GSK204919]
2. Nc1nc(-c2nccs2)c(-c2ccnc3ccccc23)s1 [GW693542]

## Output
[0, 22]

## Input Endpoint output: %Inh of Cc1cc(-c2ccc3c(c2)CC[C@@H](N[C@@H](C)c2ccccc2)C3)cnc1N.Cl [GW412617] . Value?
## Output 18
